Target: ratAChE (Rattus norvegicus, UniProt P37136)
Sequence (P37136 32-614): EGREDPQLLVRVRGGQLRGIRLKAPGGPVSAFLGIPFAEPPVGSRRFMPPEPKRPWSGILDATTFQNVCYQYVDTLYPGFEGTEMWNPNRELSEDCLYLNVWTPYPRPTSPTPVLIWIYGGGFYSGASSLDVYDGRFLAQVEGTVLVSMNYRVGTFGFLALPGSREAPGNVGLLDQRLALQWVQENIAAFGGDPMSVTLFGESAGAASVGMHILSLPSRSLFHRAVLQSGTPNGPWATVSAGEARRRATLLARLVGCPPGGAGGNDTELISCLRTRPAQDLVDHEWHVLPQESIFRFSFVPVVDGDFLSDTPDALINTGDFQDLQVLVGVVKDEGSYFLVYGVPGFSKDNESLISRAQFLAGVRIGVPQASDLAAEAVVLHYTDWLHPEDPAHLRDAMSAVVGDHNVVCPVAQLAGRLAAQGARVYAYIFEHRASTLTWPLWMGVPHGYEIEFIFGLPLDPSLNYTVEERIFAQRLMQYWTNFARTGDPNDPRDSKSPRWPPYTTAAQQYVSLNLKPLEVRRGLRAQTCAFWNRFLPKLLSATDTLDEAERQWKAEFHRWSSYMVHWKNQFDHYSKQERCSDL
Rule: IC50 below 0.7 µM gives 1 (yes), anything at or above gives 0 (no).

Input line: Check if IC50 falls below 0.7 µM for CCN(CCCOc1ccc(/C=C/C(=O)c2c(O)cc(OC)c(O)c2OC)cc1)Cc1ccccc1OC [Compound 17b] .
Output line: 0 (no)

Input line: Here's an entry: COc1ccccc1CN(C)CCCCOc1ccc(/C=C/C(=O)c2c(O)cc(OC)c(O)c2OC)cc1 [Compound 17c] . Is its IC50 below 0.7 µM?
Output line: 0 (no)

Input line: Strictly below 0.7 µM in IC50? "CCN(CCCCCCOc1ccc(/C=C/C(=O)c2c(O)cc(OC)c(OC)c2OC)cc1)Cc1ccccc1OC"
Output line: 1 (yes)

Input line: Confirm or reject: IC50 of COc1ccccc1CN(C)CCCOc1ccc(/C=C/C(=O)c2c(O)cc(OC)c(O)c2OC)cc1 [Compound 17a] lies strictly below 0.7 µM
Output line: 0 (no)

====

Biological target: ratAChE (Rattus norvegicus, UniProt P37136)
Experiment: Ellman's method, AChE from rat cortex homogenate
Assay type: biochemical
Conditions: ratBuChE over rat AChE
As shown below, each of these compounds has a reported SI = Selectivity index = IC50 (BuChE)/IC50 (AChE) value.

{"COMPOUND": "COc1ccccc1CN(C)CCCOc1ccc(/C=C/C(=O)c2c(O)cc(OC)c(OC)c2OC)cc1 [Compound 9a]", "ENDPOINT RESULT": ">160.3"}
{"COMPOUND": "COc1ccccc1CN(C)CCCCOc1ccc(/C=C/C(=O)c2c(O)cc(OC)c(O)c2OC)cc1 [Compound 17c]", "ENDPOINT RESULT": ">306.7"}

Input line: What value of measured SI = Selectivity index = IC50 (BuChE)/IC50 (AChE) is listed for CCN(CCCCCCOc1ccc(/C=C/C(=O)c2c(O)cc(OC)c(O)c2OC)cc1)Cc1ccccc1OC [Compound 17f] ?
Output line: >1219.5

Input line: Fill in the blank: the reported SI = Selectivity index = IC50 (BuChE)/IC50 (AChE) of CCN(CCCOc1ccc(/C=C/C(=O)c2c(O)cc(OC)c(O)c2OC)cc1)Cc1ccccc1OC [Compound 17b] is ____.
Output line: 212.3
